# TEST SETTINGS: in isobutanol, 293.15 K
METRIC: solubility (mole fraction)

>  <GIVEN SMILES>
Cc1nc(N)nc(N)n1

>  <REPORTED MEASUREMENT>
0.000551

$$$$

---

# TEST SETTINGS: in ethylene glycol, 293.15 K

>  <GIVEN SMILES>
Cc1nc(N)nc(N)n1

>  <solubility (mole fraction)>
0.00109

$$$$

---

# TEST SETTINGS: in DMF, 313.15 K
METRIC: solubility (mole fraction)

>  <GIVEN SMILES>
Cc1nc(N)nc(N)n1

>  <METRIC>
solubility (mole fraction)

>  <REPORTED MEASUREMENT>
0.00247

$$$$

---

# TEST SETTINGS: in isopropanol, 323.15 K
METRIC: solubility (mole fraction)

>  <GIVEN SMILES>
Cc1nc(N)nc(N)n1

>  <METRIC>
solubility (mole fraction)

>  <REPORTED MEASUREMENT>
0.00115

$$$$

---

# TEST SETTINGS: in isopropanol, 308.15 K
METRIC: solubility (mole fraction)

>  <GIVEN SMILES>
Cc1nc(N)nc(N)n1

>  <METRIC>
solubility (mole fraction)

>  <REPORTED MEASUREMENT>
0.000698

$$$$

---

# TEST SETTINGS: in 1,4-dioxane, 323.15 K

>  <GIVEN SMILES>
Cc1nc(N)nc(N)n1

>  <solubility (mole fraction)>
0.00205

$$$$

---

# TEST SETTINGS: in acetonitrile, 283.15 K

>  <GIVEN SMILES>
Cc1nc(N)nc(N)n1

>  <solubility (mole fraction)>
9.52e-05

$$$$

---

# TEST SETTINGS: in n-propanol, 288.15 K
METRIC: solubility (mole fraction)

>  <GIVEN SMILES>
Cc1nc(N)nc(N)n1

>  <REPORTED MEASUREMENT>
0.000385

$$$$

---

# TEST SETTINGS: in water, 303.15 K

>  <GIVEN SMILES>
Cc1nc(N)nc(N)n1

>  <solubility (mole fraction)>
0.000285

$$$$

---

# TEST SETTINGS: in ethyl acetate, 303.15 K
METRIC: solubility (mole fraction)

>  <GIVEN SMILES>
Cc1nc(N)nc(N)n1

>  <REPORTED MEASUREMENT>
0.00125

$$$$

---

# TEST SETTINGS: in isopropanol, 318.15 K

>  <GIVEN SMILES>
Cc1nc(N)nc(N)n1

>  <solubility (mole fraction)>
0.000973

$$$$

---

# TEST SETTINGS: in isobutanol, 323.15 K

>  <GIVEN SMILES>
Cc1nc(N)nc(N)n1

>  <solubility (mole fraction)>
0.00153

$$$$

---

# TEST SETTINGS: in 1,4-dioxane, 313.15 K

>  <GIVEN SMILES>
Cc1nc(N)nc(N)n1

>  <solubility (mole fraction)>
0.00152

$$$$

---

# TEST SETTINGS: in ethanol, 293.15 K

>  <GIVEN SMILES>
Cc1nc(N)nc(N)n1

>  <solubility (mole fraction)>
0.000315

$$$$

---

# TEST SETTINGS: in n-butanol, 308.15 K

>  <GIVEN SMILES>
Cc1nc(N)nc(N)n1

>  <solubility (mole fraction)>
0.00111

$$$$

---

# TEST SETTINGS: in 1,4-dioxane, 283.15 K

>  <GIVEN SMILES>
Cc1nc(N)nc(N)n1

>  <solubility (mole fraction)>
0.000584

$$$$

---

# TEST SETTINGS: in n-butanol, 288.15 K

>  <GIVEN SMILES>
Cc1nc(N)nc(N)n1

>  <solubility (mole fraction)>
0.000536

$$$$

---

# TEST SETTINGS: in ethyl acetate, 318.15 K

>  <GIVEN SMILES>
Cc1nc(N)nc(N)n1

>  <solubility (mole fraction)>
0.00198

$$$$

---

# TEST SETTINGS: in ethylene glycol, 308.15 K

>  <GIVEN SMILES>
Cc1nc(N)nc(N)n1

>  <solubility (mole fraction)>
0.00164

$$$$

---

# TEST SETTINGS: in ethanol, 283.15 K

>  <GIVEN SMILES>
Cc1nc(N)nc(N)n1

>  <solubility (mole fraction)>
0.000226

$$$$

---

# TEST SETTINGS: in acetonitrile, 318.15 K
METRIC: solubility (mole fraction)

>  <GIVEN SMILES>
Cc1nc(N)nc(N)n1

>  <METRIC>
solubility (mole fraction)

>  <REPORTED MEASUREMENT>
0.000426

$$$$

---

# TEST SETTINGS: in n-propanol, 313.15 K
METRIC: solubility (mole fraction)

>  <GIVEN SMILES>
Cc1nc(N)nc(N)n1

>  <REPORTED MEASUREMENT>
0.000985

$$$$

---

# TEST SETTINGS: in isobutanol, 298.15 K
METRIC: solubility (mole fraction)

>  <GIVEN SMILES>
Cc1nc(N)nc(N)n1

>  <REPORTED MEASUREMENT>
0.000663

$$$$

---

# TEST SETTINGS: in ethanol, 323.15 K

>  <GIVEN SMILES>
Cc1nc(N)nc(N)n1

>  <solubility (mole fraction)>
0.000999

$$$$

---

# TEST SETTINGS: in water, 298.15 K
METRIC: solubility (mole fraction)

>  <GIVEN SMILES>
Cc1nc(N)nc(N)n1

>  <METRIC>
solubility (mole fraction)

>  <REPORTED MEASUREMENT>
0.000228

$$$$

---

# TEST SETTINGS: in ethylene glycol, 313.15 K

>  <GIVEN SMILES>
Cc1nc(N)nc(N)n1

>  <solubility (mole fraction)>
0.00193

$$$$

---

# TEST SETTINGS: in isopropanol, 283.15 K
METRIC: solubility (mole fraction)

>  <GIVEN SMILES>
Cc1nc(N)nc(N)n1

>  <METRIC>
solubility (mole fraction)

>  <REPORTED MEASUREMENT>
0.00027

$$$$

---

# TEST SETTINGS: in n-propanol, 293.15 K
METRIC: solubility (mole fraction)

>  <GIVEN SMILES>
Cc1nc(N)nc(N)n1

>  <REPORTED MEASUREMENT>
0.000452

$$$$

---

# TEST SETTINGS: in ethanol, 298.15 K
METRIC: solubility (mole fraction)

>  <GIVEN SMILES>
Cc1nc(N)nc(N)n1

>  <METRIC>
solubility (mole fraction)

>  <REPORTED MEASUREMENT>
0.000386

$$$$

---

# TEST SETTINGS: in n-propanol, 283.15 K

>  <GIVEN SMILES>
Cc1nc(N)nc(N)n1

>  <solubility (mole fraction)>
0.000321

$$$$

---

# TEST SETTINGS: in 1,4-dioxane, 308.15 K
METRIC: solubility (mole fraction)

>  <GIVEN SMILES>
Cc1nc(N)nc(N)n1

>  <METRIC>
solubility (mole fraction)

>  <REPORTED MEASUREMENT>
0.00126

$$$$

---

# TEST SETTINGS: in water, 283.15 K

>  <GIVEN SMILES>
Cc1nc(N)nc(N)n1

>  <solubility (mole fraction)>
0.000122

$$$$

---

# TEST SETTINGS: in water, 293.15 K

>  <GIVEN SMILES>
Cc1nc(N)nc(N)n1

>  <solubility (mole fraction)>
0.000182

$$$$

---

# TEST SETTINGS: in isopropanol, 288.15 K
METRIC: solubility (mole fraction)

>  <GIVEN SMILES>
Cc1nc(N)nc(N)n1

>  <REPORTED MEASUREMENT>
0.000325

$$$$

---

# TEST SETTINGS: in ethanol, 318.15 K

>  <GIVEN SMILES>
Cc1nc(N)nc(N)n1

>  <solubility (mole fraction)>
0.000845

$$$$

---

# TEST SETTINGS: in 1,4-dioxane, 293.15 K

>  <GIVEN SMILES>
Cc1nc(N)nc(N)n1

>  <solubility (mole fraction)>
0.000782

$$$$

---

# TEST SETTINGS: in n-butanol, 283.15 K
METRIC: solubility (mole fraction)

>  <GIVEN SMILES>
Cc1nc(N)nc(N)n1

>  <METRIC>
solubility (mole fraction)

>  <REPORTED MEASUREMENT>
0.000477

$$$$

---

# TEST SETTINGS: in n-propanol, 303.15 K
METRIC: solubility (mole fraction)

>  <GIVEN SMILES>
Cc1nc(N)nc(N)n1

>  <REPORTED MEASUREMENT>
0.000689

$$$$

Provenance of the data: BigSolDB 2.1
